- System: cerebral blood flow
- assay-text: Improving cerebral blood flow
- Format: in vivo, rabbit
- run-conditions: 10 mg/kg
Overview of recorded Increase in cerebral blood flow (Vp), ratio to papaverine 1 mg/kg for various molecules

Here are 3 molecules together with their reported answers.
1. Nc1ncnc2c1ncn2C1OC2=CC(CC(=O)O)(C(=O)O)OC2[C@H]1O (stereo partly shown) [Compound No. 133, 7'-deoxygriseolic acid]: 10
2. O=C(O)CC1(C(=O)O)C=C2OC(n3cnc4c(=O)[nH]cnc43)C(O)C2O1 (stereo not shown) [Compound No. 138]: 5.5
3. CC(=O)O[C@H](C(=O)O)C1(C(=O)O)C=C2OC(n3cnc4c(N)ncnc43)[C@H](O)C2O1 (stereo partly drawn) [Compound No. 141, 7'(S)-acetoxy-7'-deoxygriseolic acid]: 9.2

Below: the item to evaluate.
Name the reported Increase in cerebral blood flow (Vp), ratio to papaverine 1 mg/kg value associated with the molecule CC(=O)OC1C2OC(C(=O)OC(c3ccccc3)c3ccccc3)(C(OC(C)=O)C(=O)OC(c3ccccc3)c3ccccc3)C=C2OC1n1cnc2c(=O)[nH]cnc21 (stereo not shown) [Compound No. 71]
3.0

###

Form field: pIC50 (one value per entry).
- target: cGMP PDE
- assay-text: Phosphodiesterase (PDE) inhibitory activity, cGMP substrate
- Type: biochemical
- run-conditions: cGMP as substrate, crude enzyme from rat brains; read-out: I50 cGMP PDE
Note on pIC50: it is the negative log10 of concentration, concentration in mol/L.

Example entries begin here.
1) Nc1ncnc2c1ncn2C1OC2=CC(C(=O)O)([C@@H](OC(=O)c3ccccc3)C(=O)O)OC2[C@H]1OC(=O)c1ccccc1 (stereo partly drawn): 4.05
2) Nc1ncnc2c1ncn2C1OC2=CC(C(=O)O)(C(Cl)C(=O)O)OC2[C@H]1O (stereo partly drawn): 4.83
3) Nc1ncnc2c1ncn2C1OC2=CC(C(=O)O)([C@@H](O)C(=O)O)OC2[C@@H]1Br (stereo partly drawn) [Compound No. 143, 2'(S)-bromo-2'-deoxygriseolic acid]: 5.39

Can you look up pIC50 on cGMP PDE for CNc1ncnc2c1ncn2C1OC2=CC(C(=O)O)([C@@H](O)C(=O)O)OC2[C@H]1O (stereo partly drawn) ?
4.85

Lookup: pIC50 / cGMP PDE / Nc1ncnc2c1ncn2C1OC2=CC(C(=O)O)([C@@H](O)C(=O)O)OC2[C@H]1OC(=O)c1ccccc1 (stereo partly drawn)
4.32

Give cGMP PDE pIC50 for Nc1ncnc2c1ncn2C1OC2=CC(CC(=O)O)(C(=O)O)OC2[C@H]1O (stereo partly drawn)
5.96

###

- target: cGMP PDE
- assay-text: Phosphodiesterase (PDE) inhibitory activity, cGMP substrate
- run-conditions: cGMP as substrate, crude enzyme from rat brains; read-out: I50 cGMP PDE
- Method: The test was carried out following essentially the method of A. L. Pichard and Y. U. Chung [Journal of Biological Chemistry, 251, 5726-5737 (1976)]. A crude enzymatic solution derived from rat brains was used as the source of cAMP PDE. ^14 C-labeled cAMP was used as the substrate. […] At the end of this time, the reaction mixture was treated with an Amberlite (trade mark) IRP-58 resin and the level of residual adenosine radioactivity in the product was determined. […]
quantity: pIC50
Scale for pIC50: -log10 of concentration given in mol/L; no unit attached.

Some molecules with known pIC50 results, for comparison:
1) O=C(O)C(O)C1(C(=O)O)C=C2OC(n3cnc4c(=O)[nH]cnc43)C(O)C2O1 (stereo not drawn) [Compound No. 51, 6-desamino-6-hydroxygriseolic acid]: 6.89
2) Nc1ncnc2c1ncn2C1OC2=CC(C(=O)O)([C@@H](OC(=O)c3ccccc3)C(=O)O)OC2[C@H]1O (stereo partly drawn): 5.54
3) O=C(O)[C@H](O)C1(C(=O)O)C=C2OC(n3cnc4cncnc43)[C@H](O)C2O1 (stereo partly drawn) [Compound No. 53, 6-desamino-6-hydrogriseolic acid]: 5.92
4) Nc1ncnc2c1ncn2C1OC2=CC(C(=O)O)([C@H](N)C(=O)O)OC2[C@H]1O (stereo partly drawn) [Compound No. 135, 7'(S)-amino-7'-deoxygriseolic acid]: 5.38
5) O=C(O)CC1(C(=O)O)C=C2OC(n3cnc4c(=O)[nH]cnc43)C(O)C2O1 (stereo not drawn): 7.30

Param item = Nc1ncnc2c1ncn2C1OC2=CC(C(=O)O)([C@H](O)C(=O)O)OC2[C@H]1O (stereo partly drawn) [Compound No. 140, 7'-deoxy-7'(S)-hydroxygriseolic acid] ; retrieve measured pIC50.
5.55

Which pIC50 value belongs to Nc1ncnc2c1ncn2C1CC2OC(C(=O)O)([C@@H](O)C(=O)O)C=C2O1 (stereo partly drawn) ?
5.96

Data request, read-out pIC50, for [N-]=[N+]=N[C@H]1C2OC(C(=O)O)([C@@H](O)C(=O)O)C=C2OC1n1cnc2c(N)ncnc21 (stereo partly drawn) [Compound No. 247, 2'(S)-azido-2'-deoxygriseolic acid]
5.19

Consider the molecule CN(C)c1ncnc2c1ncn2C1OC2=CC(C(=O)O)([C@@H](O)C(=O)O)OC2[C@H]1O (stereo partly drawn) and give its measured pIC50.
4.41

###

- target: cAMP PDE
- assay-text: Phosphodiesterase (PDE) inhibitory activity, cAMP substrate
- run-conditions: 0.14 μM 14C-labeled cAMP, pH 8.0, 30° C., 20 minutes, crude enzyme from rat brains; read-out: I50 cAMP PDE
quantity: pIC50
In simple prose, pIC50 is minus the logarithm base ten of a concentration in moles per litre.

// below: answered molecules
1) O=C(O)C(O)C1(C(=O)O)C=C2OC(n3c(Br)nc4c(=O)[nH]cnc43)C(O)C2O1 (stereo not drawn): 4.60
2) Nc1ncnc2c1ncn2C1OC2=CC(C(=O)O)(C(Cl)C(=O)O)OC2[C@H]1O (stereo partly drawn): 5.82
3) Nc1ncnc2c1nc(S)n2C1OC2=CC(C(=O)O)([C@@H](O)C(=O)O)OC2[C@H]1O (stereo partly drawn): 4.52
4) Nc1ncnc2c1ncn2C1OC2=CC(CC(=O)O)(C(=O)O)OC2[C@H]1O (stereo partly drawn): 6.85
5) O=C(O)[C@H](O)C1(C(=O)O)C=C2OC(n3cnc4cncnc43)[C@H](O)C2O1 (stereo partly drawn) [Compound No. 53, 6-desamino-6-hydrogriseolic acid]: 4.85

What measured pIC50 goes with CC(=O)O[C@H](C(=O)O)C1(C(=O)O)C=C2OC(n3cnc4c(N)ncnc43)[C@H](O)C2O1 (stereo partly drawn) [Compound No. 141, 7'(S)-acetoxy-7'-deoxygriseolic acid] ?
6.66

###

- target: cAMP PDE
- assay-text: Phosphodiesterase (PDE) inhibitory activity, cAMP substrate
- Format: biochemical, rat
- run-conditions: 0.14 μM 14C-labeled cAMP, pH 8.0, 30° C., 20 minutes, crude enzyme from rat brains; read-out: I50 cAMP PDE
quantity: IC50 (µM)
Please give a number only; it is taken to be in µM.

Look over these answered cases.
1) COc1nc2c(N)ncnc2n1C1OC2=CC(C(=O)O)([C@@H](O)C(=O)O)OC2[C@H]1O (stereo partly drawn): 3.9
2) [N-]=[N+]=N[C@H](C(=O)O)C1(C(=O)O)C=C2OC(n3cnc4c(N)ncnc43)[C@H](O)C2O1 (stereo partly drawn): 4.4

Okay, now this molecule:
Please state recorded IC50 (tested on cAMP PDE) of CN(C)c1ncnc2c1ncn2C1OC2=CC(C(=O)O)([C@@H](O)C(=O)O)OC2[C@H]1O (stereo partly drawn)
31
